Target: Androgen receptor (Homo sapiens, UniProt P10275)
Sequence (P10275 whole entry): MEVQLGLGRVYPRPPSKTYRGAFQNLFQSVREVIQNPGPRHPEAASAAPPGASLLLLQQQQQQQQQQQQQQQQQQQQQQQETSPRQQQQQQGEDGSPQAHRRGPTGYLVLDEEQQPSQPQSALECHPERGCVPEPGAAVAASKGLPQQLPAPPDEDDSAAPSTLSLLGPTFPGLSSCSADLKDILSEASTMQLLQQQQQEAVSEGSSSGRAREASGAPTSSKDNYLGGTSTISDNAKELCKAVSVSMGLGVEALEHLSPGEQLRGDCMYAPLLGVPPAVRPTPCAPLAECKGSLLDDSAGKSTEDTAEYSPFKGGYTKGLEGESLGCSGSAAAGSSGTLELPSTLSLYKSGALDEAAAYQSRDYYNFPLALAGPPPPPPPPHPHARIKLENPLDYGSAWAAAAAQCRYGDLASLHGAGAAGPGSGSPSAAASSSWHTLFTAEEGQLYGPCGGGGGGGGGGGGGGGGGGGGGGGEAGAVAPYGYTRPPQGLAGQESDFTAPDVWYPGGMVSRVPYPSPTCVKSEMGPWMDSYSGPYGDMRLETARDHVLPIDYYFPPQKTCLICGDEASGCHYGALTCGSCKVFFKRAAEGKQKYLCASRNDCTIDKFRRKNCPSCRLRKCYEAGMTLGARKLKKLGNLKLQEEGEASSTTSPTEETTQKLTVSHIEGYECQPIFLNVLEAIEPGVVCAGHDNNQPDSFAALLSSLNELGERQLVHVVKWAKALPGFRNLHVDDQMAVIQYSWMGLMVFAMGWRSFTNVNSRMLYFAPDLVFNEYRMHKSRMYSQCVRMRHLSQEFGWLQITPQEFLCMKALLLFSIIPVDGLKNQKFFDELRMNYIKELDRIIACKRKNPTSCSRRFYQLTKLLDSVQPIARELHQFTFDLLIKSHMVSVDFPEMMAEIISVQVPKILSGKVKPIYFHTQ
Assay: Inhibition of BF3 site of androgen receptor in human LNCAP cells expressing ARR2PB after 3 days by eGFP transcriptional assay
Assay type: cell-based
Lab note: compare IC50 with 20 µM, writing 1 if less and -1 if equal or more.

Here's what some known entries look like.
CCOc1cccc(OCCSc2nc3ccccc3n2CCOc2ccc(C)cc2)c1 ... -1
[O-][S+](CCOc1ccccc1)c1nc2ccccc2[nH]1 (stereo not given) ... -1
c1ccc(OCCSc2nc3ccccc3o2)cc1 ... -1
Cc1cccc(OCCSc2nc3ccccc3n2CCOc2ccccc2)c1 ... -1
Cc1cc(C)cc(OCCSc2nc3ccccc3n2CC(=O)O)c1 ... -1
Cc1ccccc1OCCSc1nc2ccccc2[nH]1 ... 1

Query: Quick check: does "CCOC(=O)Cn1c(SCCOc2cc(C)cc(C)c2)nc2ccccc21" have IC50 under 20 µM?
Reply: -1

Query: Same lookup for "Cc1cccc(OCCSc2nc3ccccc3n2CC(=O)O)c1" , please.
Reply: -1

Query: Another: "O=C(O)CCn1c(SCCOc2ccccc2)nc2ccccc21"
Reply: -1

Query: Queued: "Cc1ccc(OCCSc2nc3ccccc3n2CCC(=O)O)cc1"
Reply: -1

Query: # iterate: "c1ccc(CCSc2nc3ccccc3[nH]2)cc1"
Reply: 1

Query: Field entry: "CCOC(=O)Cn1c(SCCOc2cccc(C)c2)nc2ccccc21"
Reply: 1

Query: Quick one: "COCCn1c(SCCOc2cccc(C)c2)nc2ccccc21"
Reply: -1

Query: Please give the result for "CC(C)(C)c1cccc(OCCSc2nc3ccccc3n2CC(=O)O)c1" too.
Reply: -1

Query: Same question for "CCc1cccc(OCCSc2nc3ccccc3n2CC(=O)O)c1" please.
Reply: -1

Query: Thanks! And "C=CCc1cccc(OCCSc2nc3ccccc3n2CC(=O)OC)c1" ?
Reply: -1

Query: Same read-out for "Cc1cccc(OCCSc2nc3ccccc3[nH]2)c1" ?
Reply: 1

Query: # iterate: "CCc1cccc(OCCSc2nc3ccccc3n2CCC(=O)O)c1"
Reply: -1

Query: What about this compound? "Cc1cccc(OCCSc2nc3ccccc3n2CCC(=O)O)c1"
Reply: -1

Query: And what about the compound "Cc1cccc(OCCSc2nc3ccccc3n2C)c1" ?
Reply: -1

Query: Then "Cc1ccc(OCCSc2nc3ccccc3n2CC(=O)OC(C)C)cc1C" ?
Reply: -1

Query: Follow-up item: "Cc1ccc(OCCSc2nc3ccccc3[nH]2)cc1"
Reply: 1

Query: Repeat for the following compound: "CCN(CC)C(=O)Cn1c(SCCOc2cccc(C)c2)nc2ccccc21"
Reply: -1

Query: Repeat for the following compound: "Cc1cccc(OCCSc2nc3ccccc3n2CC(=O)OC(C)C)c1"
Reply: 1

Query: Quick one: "Clc1cccc(OCCSc2nc3ccccc3[nH]2)c1"
Reply: 1

====

Target: Androgen receptor (Homo sapiens, UniProt P10275)
Assay type: cell-based, LNCaP
experimental-readout: IC50 (µM)
One number for each entry, in µM.

Sample records with IC50:
NS(=O)(=O)c1cccc2cc(SCCOc3ccccc3)[nH]c12 ... 6.4
Cc1cccc(OCCSc2nc3ccccc3[nH]2)c1 ... 13

// next item, IC50 requested
Query: Returns the measured IC50 for the input compound. Input: "Cc1cccc(C)c1OCCSc1nc2ccccc2[nH]1"
Reply: 6.8

====

For each entry below, report its IC50 value.
Target: Androgen receptor (Homo sapiens, UniProt P10275)
Assay: Inhibition of BF3 site of androgen receptor in human LNCAP cells expressing ARR2PB after 3 days by eGFP transcriptional assay
Assay type: cell-based

Study these solved cases before continuing.
CCOC(=O)Cn1c(SCCOc2ccc(C)c(C)c2)nc2ccccc21 ... 40.3 µM
Cc1ccc(C)c(OCCSc2nc3ccccc3n2CC(=O)O)c1 ... > 200 µM
c1ccc(OCCNc2nc3ccccc3[nH]2)cc1 ... > 200 µM
C=CCn1c(SCCOc2ccccc2)nc2ccccc21 ... > 200 µM

Hey, can you go through the list below and give me IC50 for every item?
1. c1ccc(NCCSc2nc3ccccc3[nH]2)cc1
2. COC(=O)Cn1c(SCCOc2ccc(C)c(C)c2)nc2ccccc21

Reply:
["> 200 µM", "> 200 µM"]
